// IC50 collected for Estrogen receptor (Homo sapiens, UniProt P03372)
Return type: number; implicit unit µM.

Ask | Entry `Cl.Oc1ccc2cc3nc4ccccc4c(-c4ccccc4)c3cc2c1` needs its IC50 filled in; supply it.
Reply | 0.169

Ask | Find the measured IC50 of `Cl.FC(F)(F)c1cccc2c(-c3ccccc3)c3cc4ccccc4cc3nc12` and report it.
Reply | 2.65

Ask | Give the value of IC50 reported for the following: `Cl.FC(F)(F)c1ccc2cc3nc4ccccc4c(-c4ccccc4)c3cc2c1`
Reply | 3.51

Ask | Please look at this compound and report its IC50: `Cl.Clc1c2ccccc2cc2c(-c3ccccc3)c3ccccc3nc12`
Reply | 1.68

Ask | Given the compound `Cl.Oc1ccc2c(-c3ccccc3)c3cc4ccccc4cc3nc2c1` , write its reported IC50.
Reply | 0.294

Ask | Recall and state the measured IC50 for `Cl.c1ccc(-c2c3ccccc3nc3cc4ccccc4cc23)cc1` .
Reply | 0.915

Ask | Identify measured IC50 corresponding to `Cl.Oc1cccc2c(-c3ccccc3)c3cc4ccccc4cc3nc12`
Reply | 1.08

Ask | Determine its reported IC50: `Cl.Clc1ccc2c(-c3ccccc3)c3cc4ccccc4cc3nc2c1`
Reply | 1.65
